Values were extracted from patent US10065990B2.

test system: HCC827 (human non-small cell lung cancer cells); assay: MTT cancer cell growth inhibition; format: cell-based; settings: Homo sapiens, HCC827, 72 h, MTT, 72 hours incubation, HCC827 cells; read-out: GI50 HCC827
PROPERTY: GI50 (nM)

Given the entry `C/C=C1\NC(=O)c2cc(SC)cc(n2)CNC(=O)C[C@@H](/C=C/CCSC(C)=O)OC(=O)[C@H](Cc2cccc3ccccc23)NC1=O` , report its measured GI50. 47

Given the entry `C=C1NC(=O)c2cccc(n2)CNC(=O)C[C@@H](/C=C/CCSC(C)=O)OC(=O)[C@H](C)NC1=O` , report its measured GI50. 34

Given the entry `C/C=C1\NC(=O)c2nc(ccc2SC)CNC(=O)C[C@@H](/C=C/CCS)OC(=O)[C@H](C(C)C)NC1=O` , report its measured GI50. 33

Given the entry `C/C=C1\NC(=O)c2nc(ccc2SC)CNC(=O)C[C@@H](/C=C/CCS)OC(=O)[C@H](C)NC1=O` , report its measured GI50. 38

Given the entry `C/C=C1\NC(=O)c2cc(SCC)cc(n2)CNC(=O)C[C@@H](/C=C/CCSC(=O)CCCCC)OC(=O)[C@H](C(C)C)NC1=O` , report its measured GI50. 35

Given the entry `C/C=C1\NC(=O)c2ccc(F)c(n2)CNC(=O)C[C@@H](/C=C/CCS)OC(=O)[C@H](Cc2ccc(O)cc2)NC1=O` , report its measured GI50. 54

Given the entry `C/C=C1\NC(=O)c2nccc(n2)CNC(=O)C[C@@H](/C=C/CCSC(C)=O)OC(=O)[C@H](C)NC1=O` , report its measured GI50. 31

Given the entry `CC(C)=C1NC(=O)c2nc(ccc2F)CNC(=O)C[C@@H](/C=C/CCS)OC(=O)[C@H](C(C)C)NC1=O` , report its measured GI50. 41

====

test system: K562 (human leukemia cells); assay: MTT cancer cell growth inhibition; type: cell-based; details: Homo sapiens, K562, 72 h, MTT, 72 hours incubation, K562 cells; read-out: GI50 K562
PROPERTY: GI50 (nM)

Solved entries:
Given the entry `C/C=C1\NC(=O)c2cccc(n2)CNC(=O)C[C@@H](/C=C/CCSC(=O)CCCCCCC)OC(=O)[C@H](Cc2ccccc2)NC1=O` , report its measured GI50. 36

Given the entry `C/C=C1\NC(=O)c2nc(ccc2C)CNC(=O)C[C@@H](/C=C/CCSC(=O)CCCCCCC)OC(=O)[C@H](C(C)C)NC1=O` , report its measured GI50. 32

(1) C=C1NC(=O)c2cc(F)cc(n2)CNC(=O)C[C@@H](/C=C/CCS)OC(=O)[C@H](C)NC1=O
(2) CC(C)=C1NC(=O)c2nc(ccc2F)CNC(=O)C[C@@H](/C=C/CCS)OC(=O)[C@H](C(C)C)NC1=O
Compare reported GI50 values for 1 and 2 . Which is lower? Return value: the label identifying the chosen record. 1

====

System: DU145 (human prostate cancer cells)
Test: MTT cancer cell growth inhibition
Format: cell-based
Details: Homo sapiens, DU-145, 72 h, DU145 cells, MTT, 72 hours incubation; read-out: GI50 Du1
From the text: MTT assay principle is yellow MTT can penetrate membrane into the cell, succinic dehydrogenase of the mitochondria in living cells can make exogenous MTT reduction of insoluble in water of blue-violet acicular formazan for crystallization and deposition in the cell, crystallization can be dissolved dimethyl sulfoxide (DMSO) solution, detected its absorbance at 490 nm/570 nm wavelength by enzyme-linked immunosorbent assay, which can reflect the number of cells. […] e) 570 nm readings. […]
PROPERTY: GI50 (nM)

Solved entries:
Given the entry `C/C=C1\NC(=O)c2cc(SC)cc(n2)CNC(=O)C[C@@H](/C=C/CCSC(C)=O)OC(=O)[C@H](CCCCN)NC1=O` , report its measured GI50. 30

Given the entry `C=C1NC(=O)c2ccc(SC)c(n2)CNC(=O)C[C@@H](/C=C/CCSC(C)=O)OC(=O)[C@H](C)NC1=O` , report its measured GI50. 30

Given the entry `C/C=C1\NC(=O)c2nc(ccc2SC)CNC(=O)C[C@@H](/C=C/CCSC(C)=O)OC(=O)[C@H](Cc2cccc3ccccc23)NC1=O` , report its measured GI50. 50

(P) CCCCCCCC(=O)SCC/C=C/[C@@H]1CC(=O)NCc2cccc(n2)C(=O)NCC(=O)N[C@@H](C(C)C)C(=O)O1
(Q) C/C=C1\NC(=O)c2nc(ccc2SC)CNC(=O)C[C@@H](/C=C/CCSC(C)=O)OC(=O)[C@H](Cc2ccc(O)cc2)NC1=O
(R) C/C=C1\NC(=O)c2ccc(SC)c(n2)CNC(=O)C[C@@H](/C=C/CCSC(=O)CCCCCCC)OC(=O)[C@H](CC)NC1=O
Reorder: GI50, max to min. Please list each label once, in the requested order. R, Q, P

(A) C/C=C1\NC(=O)c2nc(ccc2SC)CNC(=O)C[C@@H](/C=C/CCSC(C)=O)OC(=O)[C@H](CCCCNC(=O)OCC2c3ccccc3-c3ccccc32)NC1=O
(B) C/C=C1\NC(=O)c2nc(ccc2SC)CNC(=O)C[C@@H](/C=C/CCSC(=O)CCCCCCC)OC(=O)[C@H](Cc2ccccc2)NC1=O
Of the two listed items, which has the higher GI50? First: A Second: B Return value: the label identifying the chosen record. A

====

tested on: HCC827 (human non-small cell lung cancer cells); assay: MTT cancer cell growth inhibition; format: cell-based; details: Homo sapiens, HCC827, 72 h, MTT, 72 hours incubation, HCC827 cells; read-out: GI50 HCC827
PROPERTY: GI50 (nM)

Solved entries:
Given the entry C=C1NC(=O)c2ccc(SC)c(n2)CNC(=O)C[C@@H](/C=C/CCSC(C)=O)OC(=O)[C@H](C)NC1=O [Compound 212] , report its measured GI50. 48

Given the entry C/C=C1\NC(=O)c2cc(SC)cc(n2)CNC(=O)C[C@@H](/C=C/CCSC(C)=O)OC(=O)[C@H](Cc2ccc(O)cc2)NC1=O [Compound 202] , report its measured GI50. 32

Given the entry C/C=C1\NC(=O)c2cc(F)cc(n2)CNC(=O)C[C@@H](/C=C/CCSC(=O)CCCCCCC)OC(=O)[C@H](C)NC1=O [Compound 61] , report its measured GI50. 67

Given the entry C/C=C1\NC(=O)c2cccc(n2)CNC(=O)C[C@@H](/C=C/CCSC(=O)CCC)OC(=O)[C@H](C(C)C)NC1=O [Compound 5] , report its measured GI50. 55

(P) C/C=C1\NC(=O)c2cccc(n2)CNC(=O)C[C@@H](/C=C/CCS)OC(=O)[C@H](CCCCNC(=O)OCC2c3ccccc3-c3ccccc32)NC1=O [Compound 119]
(Q) C/C=C1\NC(=O)c2ccc(F)c(n2)CNC(=O)C[C@@H](/C=C/CCSC(=O)CCCCCCC)OC(=O)[C@H](C(C)C)NC1=O [Example 32]
Compare reported GI50 values for P and Q . Which is lower? Return value: the label identifying the chosen record. P
(P: 37 nM, Q: 67 nM)

====

pIC50: −log10 of the molar value.
These records show pIC50 for HDAC8 (Homo sapiens).
PROPERTY: pIC50

Given the entry `C/C=C1\NC(=O)c2cc(F)cc(n2)CNC(=O)C[C@@H](/C=C/CCSC(=O)CCCCCCC)OC(=O)[C@H](CC)NC1=O` , report its measured pIC50. 7.37

Given the entry `C/C=C1\NC(=O)c2cccc(n2)CNC(=O)C[C@@H](/C=C/CCSC(=O)CCCCCCC)OC(=O)[C@@H](C)NC1=O` , report its measured pIC50. 7.17

Given the entry `C/C=C1\NC(=O)c2cc(F)cc(n2)CNC(=O)C[C@@H](/C=C/CCSC(=O)CCCC)OC(=O)[C@H](C(C)C)NC1=O` , report its measured pIC50. 7.35

====

system: HT1080 (human fibrosarcoma cells); test: MTT cancer cell growth inhibition; type: cell-based; conditions: Homo sapiens, HT-1080, 72 h, MTT, 72 hours incubation; read-out: GI50 HT1
PROPERTY: GI50 (µM)

Given the entry `C/C=C1\NC(=O)c2cccc(n2)CNC(=O)C[C@@H](/C=C/CCS)OC(=O)[C@H](Cc2cccc3ccccc23)NC1=O` , report its measured GI50. 0.09

Given the entry `C/C=C1\NC(=O)c2cccc(n2)CNC(=O)C[C@@H](/C=C/CCSC=O)OC(=O)[C@H](C(C)C)NC1=O` , report its measured GI50. 0.09

Given the entry `C/C=C1\NC(=O)c2cccc(n2)CNC(=O)C[C@@H](/C=C/CCSC(=O)CCCC)OC(=O)[C@H](C(C)C)NC1=O` , report its measured GI50. 0.07

Given the entry `C/C=C1\NC(=O)c2ncc(F)c(n2)CNC(=O)C[C@@H](/C=C/CCSC(C)=O)OC(=O)[C@H](C(C)C)NC1=O` , report its measured GI50. 0.07
